// provenance: patent US20030195212A1

Target: human MC5 receptor (Homo sapiens)
Construct: expressed in transfected cells; host or cells: Sf9 insect cells or COS cells
Sequence (P33032 whole entry): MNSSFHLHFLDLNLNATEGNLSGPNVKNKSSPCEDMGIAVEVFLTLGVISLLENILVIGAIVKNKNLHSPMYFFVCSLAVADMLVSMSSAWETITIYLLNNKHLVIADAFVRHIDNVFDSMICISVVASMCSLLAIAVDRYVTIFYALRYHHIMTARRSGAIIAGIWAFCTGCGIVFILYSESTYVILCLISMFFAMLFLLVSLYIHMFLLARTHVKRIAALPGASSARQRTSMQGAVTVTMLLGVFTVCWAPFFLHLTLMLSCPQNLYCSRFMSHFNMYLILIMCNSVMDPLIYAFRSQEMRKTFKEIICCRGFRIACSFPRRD
Assay: cAMP assay, MC5 receptor (transfected Sf9 or COS cells)
Assay type: cell-based
Conditions: 20 minutes at +37° C.
Measured attribute: Influence on cAMP MC5c

{"columns": ["Compound", "Influence on cAMP MC5c"],
 "data": [
  ["CCn1c2ccccc2c2cc(NC(=O)C(Cc3c[nH]c4ccccc34)NC(=O)CCN)ccc21 (stereo not shown)", "164 percentage of the baseline"],
  ["CCn1c2ccccc2c2cc(NC(=O)C(Cc3c[nH]c4ccccc34)NC(=O)CCCNC(=N)N)ccc21 (stereo not shown)", "117 percentage of the baseline"],
  ["NCCCNC(=O)C(Cc1c[nH]c2ccccc12)NC(=O)Cc1cccc2ccccc12 (stereo not shown)", "76 percentage of the baseline"]
]}

Form field Influence on cAMP MC5c, entry CCn1c2ccccc2c2cc(NC(=O)C(Cc3c[nH]c4ccccc34)NC(=O)CCCN)ccc21 (stereo not shown) : 154 percentage of the baseline
